Listed next: entries and their corresponding activity (assay not given).
Target: T1, full length human TPO-R on transfected Ba/F3 cells (human, UniProt P40238 26-635)
T1 sequence (looked up): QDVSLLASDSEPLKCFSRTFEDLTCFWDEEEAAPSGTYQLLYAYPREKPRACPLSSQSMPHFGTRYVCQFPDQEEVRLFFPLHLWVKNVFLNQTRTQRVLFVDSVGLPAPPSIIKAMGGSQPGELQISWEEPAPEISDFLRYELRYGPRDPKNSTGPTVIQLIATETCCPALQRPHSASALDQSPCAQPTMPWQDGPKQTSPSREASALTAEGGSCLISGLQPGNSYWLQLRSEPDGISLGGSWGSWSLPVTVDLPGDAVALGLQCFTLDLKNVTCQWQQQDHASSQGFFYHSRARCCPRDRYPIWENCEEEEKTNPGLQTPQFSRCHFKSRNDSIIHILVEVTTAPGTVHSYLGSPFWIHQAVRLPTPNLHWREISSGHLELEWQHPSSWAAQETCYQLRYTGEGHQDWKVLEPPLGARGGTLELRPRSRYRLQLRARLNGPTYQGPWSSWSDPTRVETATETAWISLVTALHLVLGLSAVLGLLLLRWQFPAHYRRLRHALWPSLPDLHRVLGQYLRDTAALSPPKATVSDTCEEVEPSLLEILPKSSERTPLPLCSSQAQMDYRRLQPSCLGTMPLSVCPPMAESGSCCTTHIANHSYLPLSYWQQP
Experiment: cell-based or functional assay
Where no end group is shown, it is not given here.

binder	val
REGPTLRQWM (not fully specified) [Table 8 compound, drawing CHEM-US-00060]	> 10 µm
CELVGPSLMSWLTC (not fully specified; cysteine pairing not given here) [Table 8 compound, drawing CHEM-US-00055]	> 10 µm

Please look at the following binder next.
Form field: reported activity (assay not given) of CTSTQWLLAC (not fully specified; cysteine pairing not given here) [Table 8 compound, drawing CHEM-US-00047] > 10 µm

Attribution: patent US20090214489A1
